Entries annotated with measured TGI
- Tested on: MDA-N
- protocol: NCI tumour cell line growth inhibition, 48 h

# querySmiles, systemName, relation, TGI, µM
measured = [
    ("O=C(Cc1ccccc1)NN1C(=O)/C(=C\\c2ccc(O)cc2)SC1=Nc1ccccc1", "MDA-N", ">", 100),
    ("Nc1ccc(S(=O)(=O)Nc2cnc3c(Cl)cccc3n2)cc1", "MDA-N", ">", 566),
    ("c1ccc(-c2nnn(CCN3CCCCC3)n2)cc1", "MDA-N", ">", 100),
    ("Cc1ccc(S(=O)(=O)n2cc(C#N)c(C#N)c2)cc1", "MDA-N", "=", 70.7),
    ("COC(=O)c1c(C)nc(C)c(NO)c1-c1ccccc1C(F)(F)F", "MDA-N", "=", 30.5),
]

====

- Test system: MDA-MB-231 breast
- protocol: NCI tumour cell line growth inhibition, 48 h
Entries annotated with measured GI50

# compound, GI50
records = [
    ("O=c1c2ccccc2oc2ccc(OCCCCCCN3CCCCCC3)cc12", "4.19 µM"),
    ("Oc1ccc(Cl)cc1Cc1cc(Cl)ccc1O", "1.65 µM"),
    ("CC1CC2(C)CC(=O)C1C1C(=O)N(CCN3CCCCC3)C(=O)C12 (stereo not given)", "> 100 µM"),
    ("OCNCCNc1nc2ccccc2c2[nH]c3ccccc3c12", "1.24 µM"),
    ("CC(=O)N(Cc1ccccc1)c1ccccc1I(=O)=O", "50.4 µM"),
    ("O=C(NCCCCCCCNC(=O)OCc1ccc2c(Cl)cc(Cl)c(O)c2n1)OCc1ccc2c(Cl)cc(Cl)c(O)c2n1", "1.13 µM"),
    ("COc1cc(NC(=O)Nc2cnc(Nc3ccc(N4CCOCC4)cc3)nc2Oc2cccc(OC)c2)cc(OC)c1", "1.41 µM"),
    ("CCOP(=O)(OCC)C(C)(CC)NC(=O)C(C(F)(F)F)C(F)(F)F (stereo not given)", "> 100 µM"),
    ("Nc1ccc(S(=O)(=O)Nc2cnc3c(Cl)cccc3n2)cc1", "78.1 µM"),
    ("O=C(Cc1csc2nc(-c3ccc(Br)cc3)cn12)N/N=C/c1ccc(O)cc1", "10.4 µM"),
]

====

- Tested on: OVCAR-8 ovarian
- protocol: NCI tumour cell line growth inhibition, 48 h
measurementName: TGI (µM)

# molecule, measurementName, unitOfMeasure, relation, valueObserved
measured = [
    ("Cc1nc(-c2cc3cc(Cl)ccc3oc2=O)cc2c1c(=O)oc1ccc(Cl)cc12", "TGI", "µM", ">", 100),
    ("O=C1CC(n2cccc2)c2c(Br)sc(Br)c21 (stereo not given)", "TGI", "µM", "=", 37.8),
    ("CCOC(=O)c1cn(C)c(=S)n2c1nc1ccccc12", "TGI", "µM", ">", 100),
    ("CC1CC/C(=C\\c2ccc(Cl)cc2)c2nc(N)c(C#N)c(-c3ccc(Cl)cc3)c21 (stereo not given)", "TGI", "µM", ">", 100),
    ("CC1OC2OC3C(OCC(O)C3O)OC(=O)[C@]34CCC(C)(C)CC3C3=CCC5[C@@]6(C)C[C@H](O)[C@H](OC7OC(CO)C(O)C(O)C7OC7OCC(OC(=O)CC(C)(O)CC(=O)OC1C(OC1OC(CO)C(O)C(O)C1O)C2O)C(O)C7O)[C@@](C)(CO)C6CC[C@@]5(C)[C@]3(C)CC4 (stereo not given in full)", "TGI", "µM", "=", 23.6),
    ("C=C1C(=O)O[C@H]2[C@H]3O[C@@H](C[C@@H]12)[C@](C)(O)CC[C@@H]1O[C@@]1(C)CCC[C@H]3C", "TGI", "µM", "=", 47.5),
    ("O=C(c1ccc(Cl)cc1)C1OC12C(=O)Nc1ccccc12 (stereo not given)", "TGI", "µM", "=", 36),
    ("Nc1ncnc2c1ncn2Cc1cccc(CCl)c1", "TGI", "µM", "=", 42.9),
    ("Oc1[nH]c2cc(Cl)ccc2c1/C=c1/ccc2c(c1)N=C(c1cc(F)cc(F)c1)N=2", "TGI", "µM", "=", 10.3),
    ("CC1(C)OC2C(COS(N)(=O)=O)SC(n3cnc4cncnc43)C2O1 (stereo not given)", "TGI", "µM", ">", 100),
    ("Cc1ccc(/C(O)=C/c2nc3ccc([N+](=O)[O-])cc3nc2/C=C(\\O)c2ccc(C)cc2)cc1", "TGI", "µM", ">", 100),
    ("O=C1C=CC(=O)c2c(Cl)ccc(O)c21", "TGI", "µM", "=", 50.2),
    ("O=C(NNCc1ccc(Cl)cc1)Nc1cccc2ccccc12", "TGI", "µM", ">", 100),
    ("O=C(Nc1ccccc1C(=O)N/N=C(\\c1ccccc1)c1ccccn1)c1ccc(F)cc1", "TGI", "µM", ">", 100),
    ("O=C1c2ccccc2C(=O)N1c1nc(-c2ccc(Cl)cc2)cc(N2N=C(c3ccc(Br)cc3)CC2c2ccccc2)n1 (stereo not given)", "TGI", "µM", ">", 24.1),
    ("CN1C(=O)C(O)CC1c1cccc(C(F)(F)F)c1 (stereo not given)", "TGI", "µM", ">", 100),
    ("CCC(CC(C)C)Nc1ccc(NC(CC)CC(C)C)cc1 (stereo not given)", "TGI", "µM", "=", 34.2),
    ("Cc1cc(Cl)ccc1Nc1nc(C(F)(F)F)ccc1C(=O)N1CCN(c2cccc(Cl)c2)CC1", "TGI", "µM", ">", 100),
    ("OCNCCNc1nc2ccccc2c2[nH]c3ccccc3c12", "TGI", "µM", "=", 8.41),
    ("Cc1cc(Cl)cc2c1NC(=O)C2=O (tested in a mixture with another compound)", "TGI", "µM", ">", 100),
]

====

Entries annotated with measured TGI
- Tested on: DU-145 prostate
- protocol: NCI tumour cell line growth inhibition, 48 h
measurementName: TGI

# compound, valueObserved
data = [
    ("CSc1ccc(C(=O)C(=O)c2ccc(SC)s2)s1", "> 10 µM"),
    ("N=C1C=C(N)C(=O)c2[nH]c(=O)ccc21", "21.4 µM"),
    ("Cc1[nH]c(=O)[nH]c(=S)c1C(=O)Nc1cccc2cc3ccccc3cc12", "> 100 µM"),
    ("O=C(c1ccco1)N(C(=S)OC12CC3CC(CC(C3)C1)C2)c1ccccc1", "> 100 µM"),
    ("CN1C(=O)C(O)CC1c1cccc(C(F)(F)F)c1 (stereo not given)", "> 100 µM"),
    ("Nc1nc(Cl)cc(NCC2(O)CCCC2)n1", "> 100 µM"),
    ("COc1ccc2nc3n(c2c1)CCc1cc(OC)c(OC)cc1-3", "> 100 µM"),
    ("Oc1ccc(Cl)cc1Cc1cc(Cl)ccc1O", "13.8 µM"),
    ("CC(=O)Oc1ccc2c(c1)CC[C@@H]1C2CC[C@]2(C)C(=O)NC(=O)CC12 (stereo not given in full)", "> 100 µM"),
    ("OCNCCNc1nc2ccccc2c2[nH]c3ccccc3c12", "2.42 µM"),
    ("N#CC1C=Cc2ccccc2N1C(=O)Oc1ccccc1 (stereo not given)", "93.8 µM"),
    ("NS(=O)(=O)c1ccc(NNc2c3ccccc3nc3c(C(=O)Nc4ccc(S(=O)(=O)Nc5ncccn5)cc4)cccc23)cc1", "> 25 µM"),
    ("CC(C)(C)C1CC[C@H](O)[C@H]([C@H](O)CC2CC(=O)N(c3ccccc3)C(=O)C2)C1 (stereo not given in full)", "> 100 µM"),
    ("CO[C@H]1C[C@H](O[C@H]2CC[C@]3(C=O)[C@H]4CC[C@]5(C)[C@@H](C6=CC(=O)OC6)CC[C@]5(O)[C@@H]4CC[C@]3(O)C2)O[C@H](C)[C@H]1O", "0.462 µM"),
    ("O=C1c2ccccc2C(=O)N1c1nc(-c2ccc(Cl)cc2)cc(N2N=C(c3ccc(Br)cc3)CC2c2ccccc2)n1 (stereo not given)", "> 23.3 µM"),
    ("N/C(=N\\Nc1ccc(S(N)(=O)=O)cc1)c1cnccn1", "> 100 µM"),
    ("CC(C)C1(O)C(=O)N(c2c(F)c(F)c(F)c(F)c2F)C(=S)N1CCSc1ccccc1 (stereo not given)", "30.9 µM"),
    ("Cc1cc(Cl)ccc1Nc1nc(C(F)(F)F)ccc1C(=O)N1CCN(c2cccc(Cl)c2)CC1", "> 100 µM"),
    ("CC(C)(C)OC(=O)n1cc(C2CN(O)C(=O)C23CCC(=O)N3Cc2ccccc2)c2ccccc21 (stereo not given)", "> 100 µM"),
    ("Nc1[nH]c(=O)ncc1CO", "> 100 µM"),
    ("CS(=O)(=O)NC12CCC(c3ccccc31)c1ccccc12", "> 100 µM"),
    ("CC1CC2(C)CC(=O)C1C1C(=O)N(CCN3CCCCC3)C(=O)C12 (stereo not given)", "> 100 µM"),
    ("COc1c(C)c(C/C=C(\\C)CC/C=C(\\C)CCC=C(C)C)c(OC)c(OC)c1OC", "> 100 µM"),
    ("S=C(NCc1ccccc1)N/N=C/c1ccccn1", "> 100 µM"),
    ("Cc1cc2c(c(=O)n1C)SCC2", "> 100 µM"),
]
